Answer each item with its documented inhibition at 10 µM.
targetOfAssay: D1 (Homo sapiens, UniProt P21728)
Sequence (P21728 whole entry): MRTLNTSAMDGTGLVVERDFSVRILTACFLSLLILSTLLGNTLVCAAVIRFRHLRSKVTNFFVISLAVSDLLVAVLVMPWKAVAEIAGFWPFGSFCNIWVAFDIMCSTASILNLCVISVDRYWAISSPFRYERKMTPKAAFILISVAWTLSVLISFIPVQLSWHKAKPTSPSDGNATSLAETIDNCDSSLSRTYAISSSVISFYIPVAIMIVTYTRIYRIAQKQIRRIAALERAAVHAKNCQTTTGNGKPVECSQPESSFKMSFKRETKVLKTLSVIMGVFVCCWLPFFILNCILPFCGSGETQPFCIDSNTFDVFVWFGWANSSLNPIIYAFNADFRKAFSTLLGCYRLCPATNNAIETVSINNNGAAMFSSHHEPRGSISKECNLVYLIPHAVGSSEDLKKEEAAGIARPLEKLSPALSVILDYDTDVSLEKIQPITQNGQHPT
assay: Radioligand binding for selectivity, D1
appliedConditions: read-out: Binding affinity (Inhibition rate % at 10 μM) D1
Number in %, nothing else.

Input: Find the measured inhibition at 10 µM of CC1(c2ccc([N+](=O)[O-])cc2)C(=O)Nc2cc(Cl)ccc2C1=O (stereo not drawn) [Example 37] and report it.
Output: 49.2

Input: Find the measured inhibition at 10 µM of COc1ccc(C2(C)C(=O)Nc3cc(N4CCN(C)CC4)cc(Cl)c3C2=O)cc1 (stereo not drawn) [Example 46] and report it.
Output: 16

Input: Find the measured inhibition at 10 µM of CC1(c2ccccc2)C(=O)Nc2cc(Cl)c(Cl)cc2C1=O (stereo not drawn) [Example 9] and report it.
Output: 26.2

Input: Find the measured inhibition at 10 µM of CN1CCN(c2ccc3c(c2)NC(=O)C(C)(c2ccc(N)cc2)C3=O)CC1 (stereo not drawn) [Example 50] and report it.
Output: 34.1

Input: Find the measured inhibition at 10 µM of CN(C)c1ccc(C2(C)C(=O)Nc3cc(Cl)cc(Cl)c3C2=O)cc1 (stereo not drawn) [Example 40] and report it.
Output: 40.8

Input: Find the measured inhibition at 10 µM of CCNc1ccc(C2(C)C(=O)Nc3cc(Cl)cc(Cl)c3C2=O)cc1 (stereo not drawn) [Example 41] and report it.
Output: 24

Input: Find the measured inhibition at 10 µM of CC1(c2ccc([N+](=O)[O-])cc2)C(=O)Nc2cc(Cl)cc(Cl)c2C1=O (stereo not drawn) [Example 14] and report it.
Output: 6.5

Input: Find the measured inhibition at 10 µM of COc1cc(Cl)cc2c1C(=O)C(C)(c1ccccc1)C(=O)N2 (stereo not drawn) [Example 6] and report it.
Output: 31.1

Input: Find the measured inhibition at 10 µM of CC1(c2ccccc2)C(=O)Nc2c(Br)cc(Br)cc2C1=O (stereo not drawn) [Example 10] and report it.
Output: 13.5

Input: Find the measured inhibition at 10 µM of CC1(c2ccc(OCc3ccccc3)c(Br)c2)C(=O)Nc2cc(Cl)cc(Cl)c2C1=O (stereo not drawn) [Example 23] and report it.
Output: 16.8

Input: Find the measured inhibition at 10 µM of CC1(c2cccc(O)c2)C(=O)Nc2cc(Cl)cc(Cl)c2C1=O (stereo not drawn) [Example 20] and report it.
Output: 64.6

Input: Find the measured inhibition at 10 µM of COc1cc(Br)c2c(c1)NC(=O)C(C)(c1ccccc1)C2=O (stereo not drawn) [Example 7] and report it.
Output: 30.5

Input: Find the measured inhibition at 10 µM of C[C@H](NC(=O)Oc1cccc(C2(C)C(=O)Nc3cc(Cl)cc(Cl)c3C2=O)c1)c1ccccc1 (stereo partly drawn) [Example 26] and report it.
Output: 50.5

Input: Find the measured inhibition at 10 µM of COc1cc(Cl)c2c(c1)NC(=O)C(C)(c1ccc(Br)cc1)C2=O (stereo not drawn) [Example 52] and report it.
Output: 41.5

Input: Find the measured inhibition at 10 µM of CC1(c2ccc(O)cc2)C(=O)Nc2ccccc2C1=O (stereo not drawn) [Example 34] and report it.
Output: 15.8

Input: Find the measured inhibition at 10 µM of C[C@H](NC(=O)Nc1cccc([C@@]2(C)C(=O)Nc3cc(Cl)cc(Cl)c3C2=O)c1)c1ccccc1 [Example 43] and report it.
Output: 30.1

Input: Find the measured inhibition at 10 µM of CC1(c2ccc(O)c(Br)c2)C(=O)Nc2cc(Cl)cc(Cl)c2C1=O (stereo not drawn) [Example 24] and report it.
Output: 13

Input: Find the measured inhibition at 10 µM of COc1cc2c(c(OC)c1)C(=O)C(C)(c1ccccc1)C(=O)N2 (stereo not drawn) [Example 8] and report it.
Output: 16.9

----------
targetOfAssay: D1 (Homo sapiens, UniProt P21728)
assay: Radioligand binding for selectivity, D1
appliedConditions: read-out: Binding affinity (Inhibition rate % at 10 μM) D1
I would appreciate it if you labelled entries true when inhibition at 10 µM is 40% or higher, otherwise false.

Input: Say whether CC1(c2ccc(N)cc2)C(=O)Nc2cc(Cl)ccc2C1=O (centres unmarked) [Example 38] shows inhibition at 10 µM of 40% or more.
Output: true

Input: Say whether COc1ccc(NS(=O)(=O)c2sc3ccc(Cl)cc3c2C)cc1N1CCNCC1 [SB-271046, reference compound] shows inhibition at 10 µM of 40% or more.
Output: true

Input: Say whether CN1CCN(c2cc(Cl)c3c(c2)NC(=O)C(C)(c2ccc([N+](=O)[O-])cc2)C3=O)CC1 (centres unmarked) [Example 49] shows inhibition at 10 µM of 40% or more.
Output: false

Input: Say whether CC1(c2ccc(O)c([N+](=O)[O-])c2)C(=O)Nc2cc(Cl)cc(Cl)c2C1=O (centres unmarked) [Example 22] shows inhibition at 10 µM of 40% or more.
Output: false

Input: Say whether CC1(c2ccc(Br)cc2)C(=O)Nc2cc(Cl)cc(Cl)c2C1=O (centres unmarked) [Example 18] shows inhibition at 10 µM of 40% or more.
Output: false

Input: Say whether CC1(c2ccc(O)c(N)c2)C(=O)Nc2c(Br)cc(Br)cc2C1=O (centres unmarked) [Example 30] shows inhibition at 10 µM of 40% or more.
Output: false

----------
targetOfAssay: human serotonin 5-HT6 receptor (Homo sapiens, UniProt P50406)
Construct: made in house; host or cells: Sf21 insect cells (pBacPAK8 baculovirus vector)
Sequence (P50406 whole entry): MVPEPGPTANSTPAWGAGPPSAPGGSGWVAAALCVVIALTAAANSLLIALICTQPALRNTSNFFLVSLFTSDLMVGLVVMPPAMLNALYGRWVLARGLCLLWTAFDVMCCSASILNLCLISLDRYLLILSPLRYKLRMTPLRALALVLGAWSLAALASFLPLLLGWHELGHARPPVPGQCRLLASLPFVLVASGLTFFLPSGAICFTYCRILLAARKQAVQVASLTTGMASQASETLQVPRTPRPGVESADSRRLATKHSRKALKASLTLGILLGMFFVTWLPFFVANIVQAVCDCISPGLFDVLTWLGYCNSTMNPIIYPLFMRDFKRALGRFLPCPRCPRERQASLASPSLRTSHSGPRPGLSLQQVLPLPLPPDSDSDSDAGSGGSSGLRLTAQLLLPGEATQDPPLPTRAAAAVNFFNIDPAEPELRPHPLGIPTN
assay: [3H]LSD binding at cloned 5-HT6 receptors
appliedConditions: read-out: Binding affinity (Inhibition rate % at 10 μM) 5HT6
Answer each item with its documented inhibition at 10 µM.
Mention the unit after the number when you answer.

Input: Find the measured inhibition at 10 µM of COc1cc(Cl)c2c(c1)NC(=O)C(C)(c1ccc(Br)cc1)C2=O (centres unmarked) and report it.
Output: 89.6%

Input: Find the measured inhibition at 10 µM of CC1(c2ccc([N+](=O)[O-])cc2)C(=O)Nc2cc(Cl)cc(Cl)c2C1=O (centres unmarked) and report it.
Output: 71.2%

Input: Find the measured inhibition at 10 µM of COc1cc(C2(C)C(=O)Nc3ccccc3C2=O)ccc1O (centres unmarked) and report it.
Output: 70.6%

Input: Find the measured inhibition at 10 µM of CC1(c2ccc(I)cc2)C(=O)Nc2cc(Cl)cc(Cl)c2C1=O (centres unmarked) and report it.
Output: 70.9%

Input: Find the measured inhibition at 10 µM of C[C@H](NC(=O)Oc1ccc(C2(C)C(=O)Nc3cc(Cl)cc(Cl)c3C2=O)cc1)c1ccccc1 (some centres unmarked) and report it.
Output: 69.8%

Input: Find the measured inhibition at 10 µM of C[C@H](NC(=O)Nc1cccc([C@@]2(C)C(=O)Nc3cc(Cl)cc(Cl)c3C2=O)c1)c1ccccc1 and report it.
Output: 70.6%

Input: Find the measured inhibition at 10 µM of CC1(c2ccc(O)c(Br)c2)C(=O)Nc2cc(Cl)cc(Cl)c2C1=O (centres unmarked) and report it.
Output: 71%

Input: Find the measured inhibition at 10 µM of CC1(c2ccc([N+](=O)[O-])cc2)C(=O)Nc2cc(Cl)c(Cl)cc2C1=O (centres unmarked) and report it.
Output: 71.9%

----------
targetOfAssay: human serotonin 5-HT6 receptor (Homo sapiens, UniProt P50406)
Construct: made in house; host or cells: Sf21 insect cells (pBacPAK8 baculovirus vector)
assay: [3H]LSD binding at cloned 5-HT6 receptors
appliedConditions: [3H]LSD 1.87 nM, cloned receptor membranes, 37° C., 60 min; read-out: IC50
measuredQuantity: pIC50
Keep it numeric: pIC50 is minus log10 of the concentration in mol/L.

Input: Find the measured pIC50 of CC1(c2ccc([N+](=O)[O-])cc2)C(=O)Nc2cc(Cl)ccc2C1=O (stereo not drawn) [Example 37] and report it.
Output: 6.00

Input: Find the measured pIC50 of COc1cc(Cl)c2c(c1)NC(=O)C(C)(c1ccc(Br)cc1)C2=O (stereo not drawn) [Example 52] and report it.
Output: 7.14

Input: Find the measured pIC50 of C[C@H](NC(=O)Nc1cccc([C@]2(C)C(=O)Nc3cc(Cl)cc(Cl)c3C2=O)c1)c1ccccc1 [Example 44] and report it.
Output: 6.10

Input: Find the measured pIC50 of CC1(c2ccc(I)cc2)C(=O)Nc2cc(Cl)cc(Cl)c2C1=O (stereo not drawn) [Example 16] and report it.
Output: 5.81

Input: Find the measured pIC50 of CC1(c2ccc(O)cc2)C(=O)Nc2cc(Cl)cc(Cl)c2C1=O (stereo not drawn) [Example 13] and report it.
Output: 7.70

Input: Find the measured pIC50 of C[C@H](NC(=O)Nc1cccc([C@@]2(C)C(=O)Nc3cc(Cl)cc(Cl)c3C2=O)c1)c1ccccc1 [Example 43] and report it.
Output: 5.95

Input: Find the measured pIC50 of COc1cc(Cl)c2c(c1)NC(=O)C(C)(c1ccccc1)C2=O (stereo not drawn) [Example 5] and report it.
Output: 6.25

Input: Find the measured pIC50 of CC1(c2cccc(OCc3ccccc3)c2)C(=O)Nc2cc(Cl)cc(Cl)c2C1=O (stereo not drawn) [Example 19] and report it.
Output: 6.87

Input: Find the measured pIC50 of CC1(c2ccccc2)C(=O)Nc2cc(Cl)cc(Cl)c2C1=O (stereo not drawn) [Example 1] and report it.
Output: 7.05

Input: Find the measured pIC50 of CC1(c2ccccc2)C(=O)Nc2c(Br)cc(Br)cc2C1=O (stereo not drawn) [Example 10] and report it.
Output: 5.88

Input: Find the measured pIC50 of CC1(c2ccc(O)c([N+](=O)[O-])c2)C(=O)Nc2cc(Cl)cc(Cl)c2C1=O (stereo not drawn) [Example 22] and report it.
Output: 6.00

Input: Find the measured pIC50 of CC1(c2ccc(O)c(O)c2)C(=O)Nc2ccccc2C1=O (stereo not drawn) [Example 32] and report it.
Output: 6.11

Input: Find the measured pIC50 of CC1(c2ccc(Cl)cc2)C(=O)Nc2cc(Cl)cc(Cl)c2C1=O (stereo not drawn) [Example 17] and report it.
Output: 5.85

Input: Find the measured pIC50 of CC1(c2ccc([N+](=O)[O-])cc2)C(=O)Nc2cc(Cl)cc(Cl)c2C1=O (stereo not drawn) [Example 14] and report it.
Output: 6.06

Input: Find the measured pIC50 of CC1(c2ccc(OCc3ccccc3)c(Br)c2)C(=O)Nc2cc(Cl)cc(Cl)c2C1=O (stereo not drawn) [Example 23] and report it.
Output: 5.90

Input: Find the measured pIC50 of COc1ccc(C2(C)C(=O)Nc3c(Br)cc(Br)cc3C2=O)cc1[N+](=O)[O-] (stereo not drawn) [Example 28] and report it.
Output: 5.92

Input: Find the measured pIC50 of CC1(c2ccccc2)C(=O)Nc2cc(Cl)c(Cl)cc2C1=O (stereo not drawn) [Example 9] and report it.
Output: 5.98

Input: Find the measured pIC50 of COc1cc(Br)c2c(c1)NC(=O)C(C)(c1ccccc1)C2=O (stereo not drawn) [Example 7] and report it.
Output: 6.92

Input: Find the measured pIC50 of COc1ccc(C2(C)C(=O)Nc3c(Br)cc(Br)cc3C2=O)cc1N (stereo not drawn) [Example 29] and report it.
Output: 5.81

Input: Find the measured pIC50 of CC1(c2ccc(O)c(N)c2)C(=O)Nc2c(Br)cc(Br)cc2C1=O (stereo not drawn) [Example 30] and report it.
Output: 5.76

Input: Find the measured pIC50 of CC1(c2cccc(O)c2)C(=O)Nc2cc(Cl)cc(Cl)c2C1=O (stereo not drawn) [Example 20] and report it.
Output: 7.31

Input: Find the measured pIC50 of CC1(c2ccc(Br)cc2)C(=O)Nc2cc(Cl)cc(Cl)c2C1=O (stereo not drawn) [Example 18] and report it.
Output: 6.31

Input: Find the measured pIC50 of CCNc1ccc(C2(C)C(=O)Nc3cc(Cl)cc(Cl)c3C2=O)cc1 (stereo not drawn) [Example 41] and report it.
Output: 7.34

Input: Find the measured pIC50 of COc1cc2c(c(OC)c1)C(=O)C(C)(c1ccccc1)C(=O)N2 (stereo not drawn) [Example 8] and report it.
Output: 6.93

Input: Find the measured pIC50 of CC1(c2ccccc2)C(=O)Nc2cc(Br)cc(Br)c2C1=O (stereo not drawn) [Example 4] and report it.
Output: 6.49

Input: Find the measured pIC50 of COc1ccc(C2(C)C(=O)Nc3cc(N4CCN(C)CC4)cc(Cl)c3C2=O)cc1 (stereo not drawn) [Example 46] and report it.
Output: 5.84

Input: Find the measured pIC50 of CN1CCN(c2cc(Cl)c3c(c2)NC(=O)C(C)(c2ccc(N)cc2)C3=O)CC1 (stereo not drawn) [Example 48] and report it.
Output: 5.97

Input: Find the measured pIC50 of CC1(c2ccc(N)cc2)C(=O)Nc2cc(Cl)cc(Cl)c2C1=O (stereo not drawn) [Example 15] and report it.
Output: 6.60

Input: Find the measured pIC50 of COc1cc(C2(C)C(=O)Nc3ccccc3C2=O)ccc1O (stereo not drawn) [Example 31] and report it.
Output: 6.10

Input: Find the measured pIC50 of CC1(c2ccc(N)cc2)C(=O)Nc2cc(Cl)ccc2C1=O (stereo not drawn) [Example 38] and report it.
Output: 6.23

Input: Find the measured pIC50 of CC1(c2ccc(O)cc2)C(=O)Nc2ccccc2C1=O (stereo not drawn) [Example 34] and report it.
Output: 5.90

Input: Find the measured pIC50 of CN1CCN(c2cc(Cl)c3c(c2)NC(=O)C(C)(c2ccc([N+](=O)[O-])cc2)C3=O)CC1 (stereo not drawn) [Example 49] and report it.
Output: 5.99

Input: Find the measured pIC50 of CC1(c2ccc(Br)cc2Br)C(=O)Nc2cc(Cl)cc(Cl)c2C1=O (stereo not drawn) [Example 27] and report it.
Output: 6.46

Input: Find the measured pIC50 of COc1ccc(C2(C)C(=O)Nc3cc(Cl)cc(Cl)c3C2=O)cc1 (stereo not drawn) [Example 12] and report it.
Output: 6.04

Input: Find the measured pIC50 of CC1(c2ccccc2)C(=O)Nc2ccccc2C1=O (stereo not drawn) [Example 2, 3-methyl-3-phenyl-1H-quinoline-2,4-dione] and report it.
Output: 5.97

Input: Find the measured pIC50 of CC1(c2ccc(Br)cc2Br)C(=O)Nc2cc(Cl)ccc2C1=O (stereo not drawn) [Example 45] and report it.
Output: 5.65
